From: ChEMBL document CHEMBL4002567

Record set of Ki for target or system Protein Mdm4 (Homo sapiens).
measurement kind: Ki

CCOC(=O)c1[nH]c2cc(Cl)ccc2c1C(NCC1CCCCC1)c1nnnn1Cc1ccc(OCc2ccccc2Br)cc1 (centres undefined); Not Active
O=C(O)c1[nH]c2cc(Cl)ccc2c1C(NCC1CCCCC1)c1nnnn1Cc1ccc(Cl)cc1 (centres undefined); Not Active
CCOC(=O)c1[nH]c2cc(Cl)ccc2c1C(NC1CCC1)c1nnnn1-c1ccc(OCc2ccccc2Br)cc1 (centres undefined); Not Active
CCOC(=O)c1[nH]c2cc(Cl)ccc2c1C(NC1CCCCC1)c1nnnn1-c1ccc(OCc2ccccc2)cc1 (centres undefined); Not Active

----------
# measured target: Protein Mdm4 (Homo sapiens, UniProt O15151)
# Sequence (O15151 whole entry): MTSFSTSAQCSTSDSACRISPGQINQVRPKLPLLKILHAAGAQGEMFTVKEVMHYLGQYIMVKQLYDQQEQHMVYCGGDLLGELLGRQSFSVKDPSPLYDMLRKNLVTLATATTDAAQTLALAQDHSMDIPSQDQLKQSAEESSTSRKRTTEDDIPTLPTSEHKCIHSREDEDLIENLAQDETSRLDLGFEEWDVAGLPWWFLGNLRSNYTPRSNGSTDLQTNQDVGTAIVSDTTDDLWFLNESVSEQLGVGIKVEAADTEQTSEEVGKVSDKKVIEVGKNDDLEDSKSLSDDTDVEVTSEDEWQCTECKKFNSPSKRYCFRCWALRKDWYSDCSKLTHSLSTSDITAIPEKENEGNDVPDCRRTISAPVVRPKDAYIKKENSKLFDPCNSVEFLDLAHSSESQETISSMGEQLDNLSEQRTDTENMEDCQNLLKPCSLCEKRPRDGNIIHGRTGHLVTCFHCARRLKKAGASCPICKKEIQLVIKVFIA
measurement kind: Ki

Some compounds with recorded Ki:
CCCCCNC(c1c(C(=O)O)[nH]c2cc(Cl)ccc12)c1nnnn1-c1ccc(OCc2ccccc2Br)cc1 (stereo not drawn); Not Active
O=C(O)c1[nH]c2cc(Cl)ccc2c1C(NC1CCC1)c1nnnn1-c1ccc(OCc2ccccc2Br)cc1 (stereo not drawn); Not Active
CCCCCNC(c1c(C(=O)OCC)[nH]c2cc(Cl)ccc12)c1nnnn1Cc1ccc(OCc2ccccc2Cl)cc1 (stereo not drawn); Not Active
O=C(O)c1[nH]c2cc(Cl)ccc2c1C(NCc1ccc(Cl)cc1)c1nnnn1Cc1ccc(OCc2ccccc2Br)cc1 (stereo not drawn); Not Active
O=C(O)c1[nH]c2cc(Cl)ccc2c1C(NC1CCCCC1)c1nnnn1-c1cccc(OCc2ccccc2)c1 (stereo not drawn); Not Active
CCCCCNC(c1c(C(=O)OCC)[nH]c2cc(Cl)ccc12)c1nnnn1-c1ccc(F)c(Cl)c1 (stereo not drawn); Not Active
O=C(O)c1[nH]c2cc(Cl)ccc2c1C(NC1CCCC1)c1nnnn1-c1cccc(OCc2ccccc2)c1 (stereo not drawn); Not Active

Now consider the entry below.
Ask: For the compound shown here, CCCCCNC(c1c(C(=O)OCC)[nH]c2cc(Cl)ccc12)c1nnnn1-c1ccc(OCc2c(Cl)cccc2Cl)cc1 (stereo not drawn) , give the reported Ki.
Result: Not Active
